Taken from ChEMBL document CHEMBL3627682.

# Test system: Bacillus cereus
# PROTOCOL_SUMMARY: Antibacterial activity against Bacillus cereus ATCC 13061
# Assay type: functional
MIC reference
OBSERVATION_TYPE: MIC

SMILES_CODE | STUDY_TARGET | OBSERVATION_TYPE | OBSERVED_RESULT
Oc1ccc(-c2nc(-c3ccc(Oc4ccc(C(F)(F)F)cc4)c(O)c3)no2)cc1 | Bacillus cereus | MIC | 8 µg/mL
[N-]=[N+]=Nc1cc(-c2noc(-c3ccc(O)cc3)n2)ccc1Oc1ccc(C(F)(F)F)cc1 | Bacillus cereus | MIC | 4 µg/mL
Oc1ccc(-c2nc(-c3ccc(Sc4ccc(C(F)(F)F)cc4)cc3)no2)cc1 | Bacillus cereus | MIC | 8 µg/mL
Oc1ccc(-c2nc(-c3ccc(Oc4ccc(C(F)(F)F)cc4)cc3Cl)no2)cc1 | Bacillus cereus | MIC | 4 µg/mL

###

# Tested on: Enterococcus faecium
# PROTOCOL_SUMMARY: Antibacterial activity against vancomycin-resistant Enterococcus faecium C68
# Format: functional
MIC reference

SMILES_CODE | STUDY_TARGET | MIC / mg/L
Oc1ccc(-c2nc(-c3ccc(Sc4ccc(C(F)(F)F)cc4)cc3)no2)cc1 | Enterococcus faecium | 2
[N-]=[N+]=Nc1cc(-c2noc(-c3ccc(O)cc3)n2)ccc1Oc1ccc(C(F)(F)F)cc1 | Enterococcus faecium | 4
Oc1ccc(-c2nc(-c3ccc(Oc4ccc(C(F)(F)F)cc4)cc3Cl)no2)cc1 | Enterococcus faecium | 4
Oc1ccc(-c2nc(-c3ccc(Oc4ccc(C(F)(F)F)cc4)c(O)c3)no2)cc1 | Enterococcus faecium | 8

###

# Tested on: Staphylococcus aureus
# PROTOCOL_SUMMARY: Antibacterial activity against methicillin, oxacillin, and tetracycline-resistant and vancomycin and linezolid-susceptible Staphylococcus aureus NRS100 COL expressing mecA
# Type: functional

SMILES_CODE | QUANTITY_UNIT | MIC
Oc1ccc(-c2nc(-c3ccc(Oc4ccc(C(F)(F)F)cc4)c(O)c3)no2)cc1 | µg/mL | 16
[N-]=[N+]=Nc1cc(-c2noc(-c3ccc(O)cc3)n2)ccc1Oc1ccc(C(F)(F)F)cc1 | µg/mL | 4
Oc1ccc(-c2nc(-c3ccc(Oc4ccc(C(F)(F)F)cc4)cc3Cl)no2)cc1 | µg/mL | 8
Oc1ccc(-c2nc(-c3ccc(Sc4ccc(C(F)(F)F)cc4)cc3)no2)cc1 | µg/mL | 2

###

# System: Enterococcus faecalis
# PROTOCOL_SUMMARY: Antibacterial activity against Enterococcus faecalis ATCC 29212
# Type: functional
OBSERVATION_TYPE: MIC (µg/mL)

SMILES_CODE | OBSERVATION_TYPE | OBSERVED_RESULT
CN[C@H](CC(C)C)C(=O)N[C@H]1C(=O)N[C@@H](CC(N)=O)C(=O)N[C@H]2C(=O)N[C@H]3C(=O)N[C@H](C(=O)N[C@H](C(=O)O)c4cc(O)cc(O)c4-c4cc3ccc4O)[C@H](O)c3ccc(c(Cl)c3)Oc3cc2cc(c3O[C@@H]2O[C@H](CO)[C@@H](O)[C@H](O)[C@H]2O[C@H]2C[C@](C)(N)[C@H](O)[C@H](C)O2)Oc2ccc(cc2Cl)[C@H]1O | MIC | 2
Oc1ccc(-c2nc(-c3ccc(Oc4ccc(C(F)(F)F)cc4)cc3Cl)no2)cc1 | MIC | 4
Oc1ccc(-c2nc(-c3ccc(Sc4ccc(C(F)(F)F)cc4)cc3)no2)cc1 | MIC | 2
Oc1ccc(-c2nc(-c3ccc(Oc4ccc(C(F)(F)F)cc4)c(O)c3)no2)cc1 | MIC | 8
[N-]=[N+]=Nc1cc(-c2noc(-c3ccc(O)cc3)n2)ccc1Oc1ccc(C(F)(F)F)cc1 | MIC | 2

###

MIC reference
# System: Enterococcus faecalis
# PROTOCOL_SUMMARY: Antibacterial activity against Enterococcus faecalis 201
# Type: functional

COMPOUND | MIC / µg/mL
Oc1ccc(-c2nc(-c3ccc(Oc4ccc(C(F)(F)F)cc4)cc3Cl)no2)cc1 | 4
[N-]=[N+]=Nc1cc(-c2noc(-c3ccc(O)cc3)n2)ccc1Oc1ccc(C(F)(F)F)cc1 | 4
Oc1ccc(-c2nc(-c3ccc(Oc4ccc(C(F)(F)F)cc4)c(O)c3)no2)cc1 | 8
CN[C@H](CC(C)C)C(=O)N[C@H]1C(=O)N[C@@H](CC(N)=O)C(=O)N[C@H]2C(=O)N[C@H]3C(=O)N[C@H](C(=O)N[C@H](C(=O)O)c4cc(O)cc(O)c4-c4cc3ccc4O)[C@H](O)c3ccc(c(Cl)c3)Oc3cc2cc(c3O[C@@H]2O[C@H](CO)[C@@H](O)[C@H](O)[C@H]2O[C@H]2C[C@](C)(N)[C@H](O)[C@H](C)O2)Oc2ccc(cc2Cl)[C@H]1O [VANCOMYCIN] | 1
Oc1ccc(-c2nc(-c3ccc(Sc4ccc(C(F)(F)F)cc4)cc3)no2)cc1 | 2
